Molecular target: T1, PDE6β1-313 (PDE6-specific N-terminal portion of the human rod cGMP phosphodiesterase type 6 β-subunit … (human, UniProt P35913-1 1-313))
T1 construct: rod cGMP phosphodiesterase type 6 β-subunit (PDE6β), human, residues 1-313; contains the GAFa domain and a portion of the GAFb domain; amplified from a human retinal cDNA library; Cloned into pET15b with NdeI/BamHI; no removal of the tag is described; also called His6-tagged PDE6β1-313; truncated PDE6β
T1 sequence (P35913 1-313, stated change not applied): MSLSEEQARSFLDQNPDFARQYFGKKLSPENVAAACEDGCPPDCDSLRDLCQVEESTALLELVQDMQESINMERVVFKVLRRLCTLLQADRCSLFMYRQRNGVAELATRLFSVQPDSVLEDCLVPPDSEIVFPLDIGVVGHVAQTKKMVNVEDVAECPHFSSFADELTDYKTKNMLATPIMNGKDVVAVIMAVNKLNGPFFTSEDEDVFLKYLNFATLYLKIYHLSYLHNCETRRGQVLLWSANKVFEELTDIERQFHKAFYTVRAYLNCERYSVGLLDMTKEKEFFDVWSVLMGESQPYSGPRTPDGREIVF
Experiment: other fluorescence titration; CysBC-Pγ24-45 (50 nM) in 1 ml of 100 mM PBS buffer (pH 7.5), increasing concentrations of PDE6β1-313 added; excitation 445 nm, emission 490 nm; fit to a hyperbola
Conditions: both partners purified
No end group written: not given here. *: point of attachment. BC = 3-(bromoacetyl)-7-diethyl-aminocoumarin, CCN(CC)c1ccc2cc(C(=O)C*)c(=O)oc2c1
endpoint label: Kd (nM)
// units = nM; emit number, no label

# Kd (binder: C(BC)RKGPPKFKQRQTRQFKSKPPKK (Cys added at the N-terminus of the peptide to carry the probe (Cys-Pγ24-45); also called fluorescently labeled Pγ24-45; polycationic region of Pγ; source: synthetic peptide) ) is 320

Data origin, for the record: paper PMC3997432
